Molecular target: human σ2/TMEM97 receptor (Homo sapiens, UniProt Q5BJF2)
Construct: expressed in transfected cells; host or cells: HEK-293
Sequence (Q5BJF2 whole entry): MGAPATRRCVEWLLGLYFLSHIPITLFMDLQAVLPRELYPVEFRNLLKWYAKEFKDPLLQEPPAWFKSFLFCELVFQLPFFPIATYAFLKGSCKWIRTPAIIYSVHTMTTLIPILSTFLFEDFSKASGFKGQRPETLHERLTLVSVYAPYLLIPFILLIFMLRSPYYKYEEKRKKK
Assay: Binding assay to human σ2/TMEM97 receptor ([3H]-DTG)
Settings: transfected HEK-293 membranes, 10 nM [3H]-DTG, 25° C., 120 minutes; read-out: Binding σ-[…] (binding to σ2-receptor expressed as Ki)
pKi: −log10 of the molar value.
pKi reference

Please give the measured pKi for this compound: Cc1ccc2c(n1)C(C)(C)CN2C(=O)[C@H]1CC[C@H](N(C)Cc2ccnc(C(F)(F)F)c2)CC1 [Example 177]
> 7.00

Same read-out for Cc1ccc2c(n1)C(C)(C)CN2C(=O)C1CN(Cc2ccccc2)C1 [Example 131] ?
< 6.00

Check Cc1ccc2c(n1)C(C)(C)CN2C(=O)NCC(c1ccccc1)N1CCCC1 (stereo not shown) [Example 7] too.
< 6.00

Attention now shifts to the item below.
Look at this compound and give its reported pKi. CC(C)CCN[C@H]1CCCCN(C(=O)N2CCc3ncccc32)C1 [Example 121]
6.30 to 7.00

---

Biological target: human σ1 receptor (Homo sapiens, UniProt Q99720)
Construct: expressed in transfected cells; host or cells: HEK-293
Sequence (Q99720 whole entry): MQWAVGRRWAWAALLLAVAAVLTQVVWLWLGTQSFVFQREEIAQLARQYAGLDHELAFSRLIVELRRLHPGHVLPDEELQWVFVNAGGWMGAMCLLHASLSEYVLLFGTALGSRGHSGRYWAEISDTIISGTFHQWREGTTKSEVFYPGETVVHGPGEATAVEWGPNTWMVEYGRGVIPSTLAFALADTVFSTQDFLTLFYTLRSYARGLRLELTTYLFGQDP
Test: Human σ1 receptor radioligand assay ([3H](+)-pentazocine)
Assay type: binding
Conditions: transfected HEK-293 membranes, 5 nM [3H](+)-pentazocine, 37° C., 120 minutes; read-out: Binding σ-[…] (binding to σ1-receptor expressed as Ki)
pKi: −log10 of the molar value.
Recorded measurements of pKi, one per entry

# annotated cases, reported pKi shown
Can you share its pKi? I mean this compound: Cc1ccc2c(n1)C(C)(C)CN2C(=O)N[C@H]1CCN(Cc2ccccc2)C1 [Example 21]
6.30 to 7.00

Same again, this time with CC1(C)CN(C(=O)N2CCC3(CCN(CC4CCOCC4)CC3)CC2)c2cccnc21 [Example 166]
6.30 to 7.00

Note, next up: CC(C)CCN1CCC(CNC(=O)N2CC(C)(C)c3ncccc32)CC1 [Example 106]
6.00 to 6.30

Let us now turn to Cc1ccc2c(n1)C(C)(C)CN2C(=O)[C@H]1CC[C@H](N(C)Cc2c(F)cccc2F)CC1 [Example 171]
> 7.00

Try Cc1ccc2c(n1)C(C)(C)CN2C(=O)N1CCC(NCc2ccccc2)CC1 [Example 115] next.
< 6.00

Further cases:
What does the data say about its pKi? Entry: CN(CCc1ccccc1)C1CCN(C(=O)N2CC(C)(C)c3ncccc32)CC1 [Example 52]
6.30 to 7.00

---

Molecular target: human σ1 receptor (Homo sapiens, UniProt Q99720)
Construct: expressed in transfected cells; host or cells: HEK-293
Assay: Human σ1 receptor radioligand assay ([3H](+)-pentazocine)
Assay type: binding
Details: transfected HEK-293 membranes, 5 nM [3H](+)-pentazocine, 37° C., 120 minutes; read-out: Binding σ-[…] (binding to σ1-receptor expressed as Ki)
result_type: Ki

Example results:
Name the reported Ki value associated with the molecule CC1(C)CN(C(=O)NCC2CCN(CCc3ccccc3)CC2)c2cccnc21
> 1 µM

Entry Cc1ccc2c(n1)C(C)(C)CN2C(=O)NC1CCN(Cc2cccc(C#N)c2)CC1 please
0.1 to 0.5 µM

Ok, now O=C(N1CCC[C@H](NCCc2ccccc2)C1)N1CCc2ncccc21
> 1 µM

Further cases:
Which value of Ki has been reported for COc1cccc([C@H](CNC(=O)N2CC(C)(C)c3nc(C)ccc32)N(C)C)c1 in the records?
0.1 to 0.5 µM

Please give the result for CC1(C)CN(C(=O)N2CCC3(CCN(Cc4ccc(F)c(C#N)c4)CC3)C2)c2cccnc21 too.
0.1 to 0.5 µM

Please give the result for Cc1ccc2c(n1)C(C)(C)CN2C(=O)N1CCC2(CCN(Cc3ccc(F)c(C#N)c3)CC2)C1 too.
> 1 µM
